The reported numbers originate from patent US4966900A.

# method: central and tissue distribution volume in Macaco (parenteral, HPLC)
# Type: in vivo
# experimental.conditions: monkey, blood, 20 mg/kg, 20 mg/kg parenteral, sodium salt, read-out: Tissue distribution volume
experimental.endpoint: Vd (L/kg)

molecule: CC(C)(ON=C(C(=O)NC1C(=O)N2C(C(=O)O)=C(COC(N)=O)CSC12)c1csc(N)n1)C(=O)NNC(=O)c1ccc(O)c(O)c1 (stereo not shown)
unit.descriptor: L/kg
assay.result: 0.295

----------
# Tested on: P. aeruginosa 5D58-1
# method: MIC
# experimental.conditions: Pseudomonas aeruginosa, 5D581, P. aeruginosa 5D58-1; Table 5

compound: CC(C)(ON=C(C(=O)NC1C(=O)N2C(C(=O)O)=C(CSc3c4c(nc5c(C(=O)O)cnn35)CCC4)CSC12)c1csc(N)n1)C(=O)NNC(=O)c1ccc(O)c(O)c1 (stereo not drawn)
MIC, µg/mL: 0.1
--
compound: CC(C)(ON=C(C(=O)NC1C(=O)N2C(C(=O)O)=C(CSc3ccnc4ncnn34)CSC12)c1csc(N)n1)C(=O)NNC(=O)c1ccc(O)c(O)c1 (stereo not drawn)
MIC, µg/mL: 0.39
--
compound: Cc1cc(SCC2=C(C(=O)O)N3C(=O)C(NC(=O)C(=NOC(C)(C)C(=O)NNC(=O)c4ccc(O)c(O)c4)c4csc(N)n4)C3SC2)n2nnnc2n1 (stereo not drawn)
MIC, µg/mL: 0.39

----------
# Test system: C. freundii 5D60-1
# method: MIC
# experimental.conditions: Citrobacter freundii, 5D601
Where a name gives a salt, the structure may show the parent alone.
Below: a set of entries, each annotated with reported log10 MIC.
experimental.endpoint: log10 MIC (log10 of the value in µg/mL)

compound: CC(C)(ON=C(C(=O)NC1C(=O)N2C(C(=O)O)=C(CSc3c4c(nc5c(C(=O)O)cnn35)CCC4)CSC12)c1csc(N)n1)C(=O)NNC(=O)c1ccc(O)c(O)c1 (stereo not drawn)
target: C. freundii 5D60-1
log10 MIC: 1.10
--
compound: Cc1cc(SCC2=C(C(=O)O)N3C(=O)C(NC(=O)C(=NOC(C)(C)C(=O)NNC(=O)c4ccc(O)c(O)c4)c4csc(N)n4)C3SC2)n2ncc(C(=O)O)c2n1 (stereo not drawn)
target: C. freundii 5D60-1
log10 MIC: -0.11
--
compound: Cc1cc(SCC2=C(C(=O)O)N3C(=O)C(NC(=O)C(=NOC(C)(C)C(=O)NNC(=O)c4ccc(O)c(O)c4)c4csc(N)n4)C3SC2)n2nc(C(=O)O)nc2n1 (stereo not drawn)
target: C. freundii 5D60-1
log10 MIC: 0.19
--
compound: CC(C)(ON=C(C(=O)NC1C(=O)N2C(C(=O)O)=C(COC(N)=O)CSC12)c1csc(N)n1)C(=O)NNC(=O)c1ccc(O)c(O)c1 (stereo not drawn)
target: C. freundii 5D60-1
log10 MIC: 1.70
--
compound: Cc1cc(SCC2=C(C(=O)O)N3C(=O)C(NC(=O)C(=NOC(C)(C)C(=O)NNC(=O)c4ccc(O)c(O)c4)c4csc(N)n4)C3SC2)n2nnnc2n1 (stereo not drawn)
target: C. freundii 5D60-1
log10 MIC: -0.41
--
compound: CC(C)(ON=C(C(=O)NC1C(=O)N2C(C(=O)O)=C(CSc3c4c(nc5nc(C(=O)O)nn35)CCC4)CSC12)c1csc(N)n1)C(=O)NNC(=O)c1ccc(O)c(O)c1 (stereo not drawn)
target: C. freundii 5D60-1
log10 MIC: -0.70
--
compound: Cc1nc2nc(C(=O)O)nn2c(SCC2=C(C(=O)O)N3C(=O)C(NC(=O)C(=NOC(C)(C)C(=O)NNC(=O)c4ccc(O)c(O)c4)c4csc(N)n4)C3SC2)c1C (stereo not drawn)
target: C. freundii 5D60-1
log10 MIC: -1.00
--
compound: CC(=O)Oc1ccc(C(=O)NNC(=O)C(C)(C)ON=C(C(=O)NC2C(=O)N3C(C(=O)O)=C(CSc4cc(C)nc5c(C(=O)O)cnn45)CSC23)c2csc(N)n2)cc1OC(C)=O (stereo not drawn) [Example 53, sodium salt]
target: C. freundii 5D60-1
log10 MIC: 0.50
--
compound: CC(=O)Oc1ccc(C(=O)NNC(=O)C(C)(C)ON=C(C(=O)NC2C(=O)N3C(C(=O)O)=C(CSc4cc(C)nc5nc(C(=O)O)nn45)CS[C@H]23)c2csc(N)n2)cc1OC(C)=O (stereo partly drawn)
target: C. freundii 5D60-1
log10 MIC: 0.50
--
compound: CC(=O)Oc1ccc(C(=O)NNC(=O)C(C)(C)ON=C(C(=O)NC2C(=O)N3C(C(=O)O)=C(CSc4ccnc5nc(C(=O)O)nn45)CS[C@H]23)c2csc(N)n2)cc1OC(C)=O (stereo partly drawn)
target: C. freundii 5D60-1
log10 MIC: 1.10
--
compound: CC(=O)Oc1ccc(C(=O)NNC(=O)C(C)(C)ON=C(C(=O)NC2C(=O)N3C(C(=O)O)=C(CSc4cc(C)nc5nc(C(F)(F)F)nn45)CS[C@H]23)c2csc(N)n2)cc1OC(C)=O (stereo partly drawn)
target: C. freundii 5D60-1
log10 MIC: 1.10
--
compound: CC(C)(ON=C(C(=O)NC1C(=O)N2C(C(=O)O)=C(CSc3c4c(nc5ncnn35)CCC4)CSC12)c1csc(N)n1)C(=O)NNC(=O)c1ccc(O)c(O)c1 (stereo not drawn)
target: C. freundii 5D60-1
log10 MIC: 0.19

----------
# Tested on: C. freundii 5D60-1
# method: MIC
# experimental.conditions: Citrobacter freundii, 5D601
experimental.endpoint: MIC (mg/L)

molecule: Cc1nc2ncnn2c(SCC2=C(C(=O)O)N3C(=O)C(NC(=O)C(=NOC(C)(C)C(=O)NNC(=O)c4ccc(O)c(O)c4)c4csc(N)n4)C3SC2)c1C (centres unmarked) [Example 39]
unit.descriptor: mg/L
assay.result: 0.39
//
molecule: Cc1nc2nc(C(=O)O)cc(SCC3=C(C(=O)O)N4C(=O)C(NC(=O)C(=NOC(C)(C)C(=O)NNC(=O)c5ccc(O)c(O)c5)c5csc(N)n5)C4SC3)n2n1 (centres unmarked) [Example 37]
unit.descriptor: mg/L
assay.result: 0.39
//
molecule: Cc1cc(SCC2=C(C(=O)O)N3C(=O)C(NC(=O)C(=NOC(C)(C)C(=O)NNC(=O)c4ccc(O)c(O)c4)c4csc(N)n4)C3SC2)n2ncnc2n1 (centres unmarked) [Example 12]
unit.descriptor: mg/L
assay.result: 3.13
//
molecule: Cc1nc2c(C(=O)O)cnn2c(SCC2=C(C(=O)O)N3C(=O)C(NC(=O)C(=NOC(C)(C)C(=O)NNC(=O)c4ccc(O)c(O)c4)c4csc(N)n4)C3SC2)c1C (centres unmarked) [Example 27]
unit.descriptor: mg/L
assay.result: 6.25
//
molecule: CC(=O)Oc1ccc(C(=O)NNC(=O)C(C)(C)ON=C(C(=O)NC2C(=O)N3C(C(=O)O)=C(CSc4c(C)c(C)nc5c(C(=O)O)cnn45)CS[C@H]23)c2csc(N)n2)cc1OC(C)=O (some centres unmarked) [Example 47]
unit.descriptor: mg/L
assay.result: 0.78

----------
# Tested on: P. aeruginosa 5D58-1
# method: MIC
# experimental.conditions: Pseudomonas aeruginosa, 5D581, P. aeruginosa 5D58-1; Table 5
experimental.endpoint: MIC

molecule: Cc1nc2nc(C(=O)O)cc(SCC3=C(C(=O)O)N4C(=O)C(NC(=O)C(=NOC(C)(C)C(=O)NNC(=O)c5ccc(O)c(O)c5)c5csc(N)n5)C4SC3)n2n1 (stereo not drawn) [Example 37]
experimental.endpoint: MIC
assay.result: 0.78 µg/mL
//
molecule: Cc1nc2ncnn2c(SCC2=C(C(=O)O)N3C(=O)C(NC(=O)C(=NOC(C)(C)C(=O)NNC(=O)c4ccc(O)c(O)c4)c4csc(N)n4)C3SC2)c1C (stereo not drawn) [Example 39]
experimental.endpoint: MIC
assay.result: 0.78 µg/mL
//
molecule: CC(C)(ON=C(C(=O)NC1C(=O)N2C(C(=O)O)=C(CSc3c4c(nc5nc(C(=O)O)nn35)CCC4)CSC12)c1csc(N)n1)C(=O)NNC(=O)c1ccc(O)c(O)c1 (stereo not drawn) [Example 33]
experimental.endpoint: MIC
assay.result: 0.2 µg/mL
